# Tested on: SF-539 CNS
# METHOD_DESCRIPTION: NCI tumour cell line growth inhibition, 48 h; in the data active = GI50 below about 0.43 µM; inactive = the rest
# valid calls are TRUE = active, FALSE = inactive; nothing else

# input Hi, sorry to bother you, what did the test record for CC/C(=C(/c1ccc(O)cc1)c1ccc(OCCN)cc1)c1ccccc1 ?
# output FALSE

# input Hi, sorry to bother you, what did the test record for O=C([O][Hg][CH2]C1OCCOC1[CH2][Hg][O]C(=O)c1ccccc1)c1ccccc1 (stereo unspecified) ?
# output FALSE

# input Hi, sorry to bother you, what did the test record for CCCCCCn1c(-c2ccc(C(=O)O/N=C(\N)c3ccc4ccccc4c3)cc2)nc(-c2ccccc2)c1-c1ccccc1 ?
# output FALSE

# input Hi, sorry to bother you, what did the test record for O=C(Nc1ccc(-n2cc(-c3ccncc3)c(-c3ccc(O)c(Cl)c3)n2)cc1)Nc1ccc(Cl)c(C(F)(F)F)c1 ?
# output FALSE

# input Hi, sorry to bother you, what did the test record for C[C@]12CC[C@@H]3c4cc(O)c(O)cc4CC[C@H]3[C@@H]1CC[C@@H]2O ?
# output FALSE
